Reference source for all entries: ChEMBL document CHEMBL4118053

tested on: Staphylococcus aureus; experiment: Antibacterial activity against methicillin-resistant Staphylococcus aureus isolate shhs-A1 by CLSI method; format: functional
Observable: MIC

Compound | Test Result
COC(=O)N[C@H]1[C@@H](C)O[C@@H](O[C@H]2C/C=C(\C)[C@@H]3C=C[C@@H]4[C@@H](O[C@H]5C[C@@H](O[C@H]6CC[C@@H](O[C@@H]7C[C@@H](O)[C@@H](O)[C@H](C)O7)[C@H](C)O6)[C@@H](OC(C)=O)[C@H](C)O5)[C@@H](C)C[C@H](C)[C@H]4[C@]3(C)C(=O)C3=C(O)[C@@]4(CC(C=O)=C[C@H](O)[C@H]4/C=C/2C)OC3=O)C[C@]1(C)N | > 128 µg/mL

For each of the items listed, what is its MIC?
1. COC(=O)N[C@H]1[C@@H](C)O[C@@H](O[C@H]2C/C=C(\C)[C@@H]3C=C[C@@H]4[C@@H](O[C@H]5C[C@@H](O[C@H]6CC[C@@H](O[C@@H]7C[C@@H](O)[C@@H](O[C@H]8CC[C@@H](O)[C@H](C)O8)[C@H](C)O7)[C@H](C)O6)[C@@H](OC(C)=O)[C@H](C)O5)[C@@H](C)C[C@H](C)[C@H]4[C@]3(C)C(=O)C3=C(O)[C@@]4(CC(/C=C/C(C)=O)=C[C@H](O)[C@H]4/C=C/2C)OC3=O)C[C@]1(C)[N+](=O)[O-]
2. COC(=O)N[C@H]1[C@@H](C)O[C@@H](O[C@H]2C/C=C(\C)[C@@H]3C=C[C@@H]4[C@@H](O[C@H]5C[C@@H](O[C@H]6C[C@@H](O)[C@@H](O[C@@H]7C[C@@H](O)[C@@H](O)[C@H](C)O7)[C@H](C)O6)[C@@H](OC(C)=O)[C@H](C)O5)[C@@H](C)C[C@H](C)[C@H]4[C@]3(C)C(=O)C3=C(O)[C@@]4(CC(/C=C/C(C)=O)=C[C@H](O)[C@H]4/C=C/2C)OC3=O)C[C@]1(C)N
3. COC(=O)N[C@H]1[C@@H](C)O[C@@H](O[C@H]2C/C=C(\C)[C@@H]3C=C[C@@H]4[C@@H](O[C@H]5C[C@@H](O[C@H]6CC[C@@H](O[C@@H]7C[C@@H](O)[C@@H](O[C@H]8CC[C@@H](O)[C@H](C)O8)[C@H](C)O7)[C@H](C)O6)[C@@H](OC(C)=O)[C@H](C)O5)[C@@H](C)C[C@H](C)[C@H]4[C@]3(C)C(=O)C3=C(O)[C@@]4(CC(C=O)=C[C@H](O)[C@H]4/C=C/2C)OC3=O)C[C@]1(C)[N+](=O)[O-]
4. COC(=O)N[C@H]1[C@@H](C)O[C@@H](O[C@H]2C/C=C(\C)[C@@H]3C=C[C@@H]4[C@@H](O[C@H]5C[C@@H](O[C@H]6CC[C@@H](O[C@@H]7C[C@@H](O)[C@@H](O[C@H]8CC[C@@H](O)[C@H](C)O8)[C@H](C)O7)[C@H](C)O6)[C@@H](OC(C)=O)[C@H](C)O5)[C@@H](C)C[C@H](C)[C@H]4[C@]3(C)C(=O)C3=C(O)[C@@]4(CC(C=O)=C[C@H](O)[C@H]4/C=C/2C)OC3=O)C[C@]1(C)N
5. C/C1=C\[C@@H]2C=C[C@H](C)C[C@]23OC(=O)C(=C3O)C(=O)[C@@]2(C)[C@H]3[C@H](C=C[C@H]2/C(C)=C/C[C@@H]1O)[C@@H](O)[C@@H](C)C[C@@H]3C
6. CC1(C)S[C@@H]2[C@H](NC(=O)[C@H](N)c3ccccc3)C(=O)N2[C@H]1C(=O)O [AMPICILLIN]
7. COC(=O)N[C@H]1[C@@H](C)O[C@@H](O[C@H]2C/C=C(\C)[C@@H]3C=C[C@@H]4[C@@H](O[C@H]5C[C@@H](O[C@H]6C[C@@H](O)[C@@H](O[C@@H]7C[C@@H](O)[C@@H](O)[C@H](C)O7)[C@H](C)O6)[C@@H](OC(C)=O)[C@H](C)O5)[C@@H](C)C[C@H](C)[C@H]4[C@]3(C)C(=O)C3=C(O)[C@@]4(CC(/C=C/C(C)=O)=C[C@H](O)[C@H]4/C=C/2C)OC3=O)C[C@]1(C)[N+](=O)[O-]
8. COC(=O)N[C@H]1[C@@H](C)O[C@@H](O[C@H]2C/C=C(\C)[C@@H]3C=C[C@@H]4[C@@H](O[C@H]5C[C@@H](O[C@H]6CC[C@@H](O[C@@H]7C[C@@H](O)[C@@H](O)[C@H](C)O7)[C@H](C)O6)[C@@H](OC(C)=O)[C@H](C)O5)[C@@H](C)C[C@H](C)[C@H]4[C@]3(C)C(=O)C3=C(O)[C@@]4(CC(C=O)=C[C@H](O)[C@H]4/C=C/2C)OC3=O)C[C@]1(C)[N+](=O)[O-]

1. 32 µg/mL
2. > 128 µg/mL
3. 32 µg/mL
4. > 128 µg/mL
5. 128 µg/mL
6. 1 µg/mL
7. > 128 µg/mL
8. 32 µg/mL

Can you share its MIC? I mean this compound: COC(=O)N[C@H]1[C@@H](C)O[C@@H](O[C@H]2C/C=C(\C)[C@@H]3C=C[C@@H]4[C@@H](O[C@H]5C[C@@H](O[C@H]6CC[C@@H](O[C@@H]7C[C@@H](O)[C@@H](O)[C@H](C)O7)[C@H](C)O6)[C@@H](OC(C)=O)[C@H](C)O5)[C@@H](C)C[C@H](C)[C@H]4[C@]3(C)C(=O)C3=C(O)[C@@]4(CC(/C=C/C(C)=O)=C[C@H](O)[C@H]4/C=C/2C)OC3=O)C[C@]1(C)N
> 128 µg/mL
